Reference for the values: PubChem BioAssay AID651593

Test: qHTS of Nrf2 Activators: Hit Validation in Primary Assay; further: nearly all actives have a fitted effect of over 70% in size
Settings: Nrf2/ARE reporter cell assay; activation; series mostly up to 46.1 µM
Among all 1,100 compounds or so, about 860 (78%) were called active. Inconclusive results (about 19%) are left out. The call rests on the fitted dose curve; in most records, active means well fitted activation curve with a large enough effect; inconclusive means small, poorly fitted or top-dose-only effect; inactive means flat fitted curve, though single readings scatter. So high a share suggests a set chosen from earlier hits. The list shows a part of the results.
In this exercise, the only acceptable responses are active, inactive

These recorded examples may help you get a feel for the data.
CCCC(=O)Nc1sc(C)c(C)c1C#N    active
Cc1cc(NC(=O)c2ccccc2F)nc2c1c(=O)oc1ccccc12    active
COc1ccc(NC(=O)CSc2ccc(-c3ccco3)nn2)cc1OC    active
CC(C)OC(=O)c1cn(-c2ccccc2)nc1-c1ccco1    active
O=C(CC(=O)c1ccccc1O)c1cccc(F)c1    active
O=C(Nc1ncnc2sc3c(c12)CCC3)c1ccco1    active
CC(C)N1C/C(=C/c2cccnc2)C(=O)/C(=C/c2cccnc2)C1    active
C/C(=N\Nc1ccc(F)cc1F)c1ccc(Br)s1    active

How did this test come out for O=C(Nc1ccccc1[N+](=O)[O-])C1COc2ccccc2O1 (stereo not given) ?
active

How did this test come out for CC(=O)Nc1ccc(S(=O)(=O)c2ccnc3cc(Cl)ccc23)cc1 ?
active

How did this test come out for Cc1cc(NC(=O)Nc2cc(Cl)sc2Cl)no1 ?
active

How did this test come out for CNC(=O)C1CCN(S(=O)(=O)c2c(C)noc2/C=C/c2ccccc2F)CC1 ?
active

How did this test come out for Fc1ccc(-c2nc3c4ccccc4ccn3c2Cc2ccccc2C(F)(F)F)cc1 ?
active

How did this test come out for Cc1ccc(C)c(NC(=O)COC(=O)c2cc(=O)c3ccccc3o2)c1 ?
active

How did this test come out for O=C1C2C3C=CC(C4CC34)C2C(=O)N1/N=C/c1ccc([N+](=O)[O-])o1 (stereo not given) ?
active

How did this test come out for N#Cc1cccn1-c1nccc(-c2cccs2)n1 ?
active

How did this test come out for O=C(CSc1ccc(-c2ccco2)nn1)N1CCCC1 ?
active

How did this test come out for Cc1nc2nc(-c3ccccc3)nn2c(C)c1Cl ?
active

How did this test come out for COc1cc(/C=N/Nc2nc3ccccc3s2)ccc1OC(=O)c1ccccc1F ?
active

How did this test come out for O=C(CSc1ccc(-c2ccco2)nn1)N1CCCCCC1 ?
active

How did this test come out for Cc1csc(-c2ccc3cc(Cl)cc(Cl)c3n2)n1 ?
active

How did this test come out for Nc1c(C(=O)c2ccc(Br)s2)oc2ccccc12 ?
active

How did this test come out for O=C(Nc1ccc(F)cc1)c1cc2ccccc2o1 ?
active

How did this test come out for O=[N+]([O-])c1cc(Cl)cc(/C=N/Nc2nc3ccccc3s2)c1O ?
inactive

How did this test come out for O=C(Nc1ncnc2sc3c(c12)CCCCC3)c1ccco1 ?
active
